# assayed-target: KIT D816V kinase activity (KIT autophosphorylation at tyrosine 719) in HMC1.2 cells (Homo sapiens (Human), UniProt P10721, D816V/V560G)
# Sequence (P10721 26-976 V560G/D816V): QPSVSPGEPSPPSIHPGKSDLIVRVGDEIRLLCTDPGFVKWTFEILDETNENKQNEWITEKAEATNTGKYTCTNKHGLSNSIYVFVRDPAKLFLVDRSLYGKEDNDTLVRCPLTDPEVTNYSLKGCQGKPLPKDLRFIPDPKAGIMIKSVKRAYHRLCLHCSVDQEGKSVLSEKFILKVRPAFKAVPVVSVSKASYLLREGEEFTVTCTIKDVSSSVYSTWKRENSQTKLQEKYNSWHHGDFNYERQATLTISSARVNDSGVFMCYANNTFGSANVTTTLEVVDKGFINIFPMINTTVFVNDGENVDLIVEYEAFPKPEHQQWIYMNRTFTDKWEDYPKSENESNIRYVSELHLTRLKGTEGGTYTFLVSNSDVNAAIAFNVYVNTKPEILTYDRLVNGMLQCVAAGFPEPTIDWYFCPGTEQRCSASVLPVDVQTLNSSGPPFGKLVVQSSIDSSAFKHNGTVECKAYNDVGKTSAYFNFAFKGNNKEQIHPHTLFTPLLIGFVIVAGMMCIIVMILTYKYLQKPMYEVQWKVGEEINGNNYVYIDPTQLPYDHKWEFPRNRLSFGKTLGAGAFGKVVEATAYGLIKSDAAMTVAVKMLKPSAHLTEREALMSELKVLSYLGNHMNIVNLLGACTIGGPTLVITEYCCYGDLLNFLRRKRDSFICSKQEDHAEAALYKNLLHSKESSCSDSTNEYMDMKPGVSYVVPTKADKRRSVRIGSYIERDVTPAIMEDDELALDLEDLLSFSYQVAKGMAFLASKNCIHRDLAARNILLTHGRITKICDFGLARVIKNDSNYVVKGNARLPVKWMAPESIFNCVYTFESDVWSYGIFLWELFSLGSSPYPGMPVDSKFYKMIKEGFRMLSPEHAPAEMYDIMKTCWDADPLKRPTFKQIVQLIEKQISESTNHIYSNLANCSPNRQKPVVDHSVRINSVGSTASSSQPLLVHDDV
# experiment-summary: HMC1.2 autophosphorylation assay (phospho-Y719 c-KIT AlphaLISA)
# test-conditions: HMC1.2 mast cell leukemia cell line (KIT V560G, D816V), 90 minutes compound; read-out: INH-KIT-PHOS-HMC1.2
pIC50: −log10 of the molar value.
The compounds listed here are annotated with their pIC50.

compound | pIC50
Cn1cc(-c2cc3c(N4CCN(c5ncc(C(C)(C)c6ccc(F)cc6)cn5)CC4)ncnn3c2)cn1 | > 7.30
Cn1cc(-c2cc3c(N4CCN(c5ccc(C(O)c6ccccc6)cn5)CC4)ncnn3c2)cn1 (stereo not drawn) | 6.00 to 7.00
CN(C)[C@@H](c1ccccc1)c1cnc(N2CCN(c3ncnn4cc(-c5cnn(C)c5)cc34)CC2)nc1 | 6.00 to 7.00
Cn1cc(-c2cc3c(N4CCN(c5ncc(S(=O)(=O)c6ccc(F)cc6)cn5)CC4)ncnn3c2)cn1 | 5.00 to 6.00
Cn1cc(-c2cc3c(N4CCN(c5ncc([C@H](N)c6ccccc6)cn5)CC4)ncnn3c2)cn1 | 6.00 to 7.00
Cn1cc(-c2cc3c(N4CCN(c5ncc([C@@](O)(CF)c6ccc(F)cc6)cn5)CC4)ncnn3c2)cn1 | 7.00 to 7.30
